target entity: HLA-A*29:02
protocol text: IEDB peptide-MHC binding, purified MHC/competitive/radioactivity; filed as Kd, often an IC50 or EC50 that approximates it; bounds were set here for any values at or beyond the usual limits of such assays
run parameters: source organism: Mammarenavirus whitewaterense
quantity: Kd (nM)
The figure you give is taken to be in nM; do not add the unit.

Q: Form field - read-out: Kd; system: HLA-A*29:02; submitted item: `YVSSIFLHL`
Result: 15.7

###

target entity: HLA-A*03:01
protocol text: IEDB peptide-MHC binding, purified MHC/direct/fluorescence; filed as Kd, often an IC50 or EC50 that approximates it; bounds were set here for any values at or beyond the usual limits of such assays
run parameters: source organism: Pasteurella multocida
quantity: Kd

Q: Bench note: what Kd did `LLKDLMPFV` show?
Result: ≥ 20 µM

These data points were gathered from the Immune Epitope Database (IEDB).
